Recorded IC50 for the following compounds
experimental system: Estrogen Receptor alpha (ER-α) LBD (Homo sapiens)
Sequence (P03372 311-547 limits assumed): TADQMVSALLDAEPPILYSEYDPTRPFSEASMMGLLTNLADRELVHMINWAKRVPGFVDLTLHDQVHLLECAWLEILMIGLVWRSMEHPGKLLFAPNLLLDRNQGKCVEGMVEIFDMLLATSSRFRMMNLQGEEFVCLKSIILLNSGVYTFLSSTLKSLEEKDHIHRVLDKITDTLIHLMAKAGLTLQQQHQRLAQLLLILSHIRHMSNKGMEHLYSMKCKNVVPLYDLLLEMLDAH
experiment summary: TR-FRET PGC1-α coactivator recruitment assay, ERα LBD
Assay type: biochemical
test conditions: TR-FRET, Estradiol = EC80; ± SEM (n = 6); read-out: NR LBDs IC50 (μM) ER-α
property measured: IC50

| smiles str | reported result |
| --- | --- |
| O=C(N/N=C/c1cc2ccccc2cc1O)c1cc2ccccc2cc1O | 10.2 µM |
| O=C(N/N=C/c1cc(Cl)ccc1O)c1cc2ccccc2cc1O | 50 to 100 µM |
| O=C(N/N=C/c1ccccc1O)c1cc2ccccc2cc1O | > 100 µM |
| CCCOc1ccc(/C=N/NC(=O)c2cc3c(ccc4ccccc43)o2)cc1 | 4 µM |
| O=C(N/N=C/c1cc([N+](=O)[O-])ccc1O)c1cc2ccccc2cc1O | > 100 µM |
| O=C(N/N=C/c1cc(Br)ccc1O)c1cc2ccccc2cc1O | > 100 µM |
| COc1cc(/C=N/NC(=O)c2cc3c(ccc4ccccc43)o2)cc(OC)c1O | > 100 µM |
| O=C(N/N=C/c1cccc(Cl)c1)c1cc2ccccc2cc1O | > 100 µM |

* * *

Recorded IC50 for the following molecules
experimental system: AR-LBD wt (Homo sapiens, UniProt P10275)
Sequence (P10275 669-900 limits assumed): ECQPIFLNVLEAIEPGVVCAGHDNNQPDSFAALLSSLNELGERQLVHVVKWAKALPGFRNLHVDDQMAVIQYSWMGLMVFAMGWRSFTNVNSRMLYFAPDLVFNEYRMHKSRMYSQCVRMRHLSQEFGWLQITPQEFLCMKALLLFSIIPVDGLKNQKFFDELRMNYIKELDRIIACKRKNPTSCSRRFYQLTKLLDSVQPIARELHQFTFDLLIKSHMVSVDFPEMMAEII
experiment summary: Lanthascreen TR-FRET AR coactivator (D11-FxxLF) assay, AR-LBD wt
Assay type: biochemical
test conditions: TR-FRET, D11-FxxLF peptide, DHT = EC80; read-out: AR (wt)

| smiles str | experimental system | IC50 [µM] |
| --- | --- | --- |
| COc1cc(/C=N/NC(=O)c2cc3c(ccc4ccccc43)o2)cc(OC)c1O | AR-LBD wt (Homo sapiens, UniProt P10275) | 26.3 |
| O=C(N/N=C/c1cc(Br)ccc1O)c1cc2ccccc2cc1O | AR-LBD wt (Homo sapiens, UniProt P10275) | 13.3 |

* * *

experimental system: AR-LBD wt (Homo sapiens, UniProt P10275)
Sequence (P10275 669-900 limits assumed): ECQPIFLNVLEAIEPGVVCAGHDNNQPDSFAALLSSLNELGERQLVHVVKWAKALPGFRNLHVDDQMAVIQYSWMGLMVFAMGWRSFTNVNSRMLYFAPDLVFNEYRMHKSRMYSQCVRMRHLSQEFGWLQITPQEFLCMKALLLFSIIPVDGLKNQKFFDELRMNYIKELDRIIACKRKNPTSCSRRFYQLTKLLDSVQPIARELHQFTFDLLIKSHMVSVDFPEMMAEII
experiment summary: Lanthascreen TR-FRET AR coactivator (D11-FxxLF) assay, AR-LBD wt
Type: biochemical
test conditions: TR-FRET, D11-FxxLF peptide, DHT = EC80; read-out: Activity (AR wt TR-FRET)
pIC50: −log10 of the molar value.

| smiles str | experimental system | pIC50 |
| --- | --- | --- |
| COc1ccccc1/C=N/NC(=O)c1ccc2ccccc2c1O | AR-LBD wt (Homo sapiens, UniProt P10275) | < 4.00 |
| C/C(=N\NC(=O)c1cc2ccccc2cc1O)C1C(=O)c2ccccc2C1=O | AR-LBD wt (Homo sapiens, UniProt P10275) | 4.95 |
| COc1ccc(/C=N/NC(=O)c2cc3c(ccc4ccccc43)o2)cc1O | AR-LBD wt (Homo sapiens, UniProt P10275) | < 4.00 |
| O=C(N/N=C/c1ccccc1[N+](=O)[O-])c1cc2ccccc2cc1O | AR-LBD wt (Homo sapiens, UniProt P10275) | < 4.00 |
| O=C(N/N=C/c1ccccc1O)c1cc2ccccc2cc1O | AR-LBD wt (Homo sapiens, UniProt P10275) | 4.26 |
| COc1ccccc1/C=N/NC(=O)c1cc2ccccc2cc1O | AR-LBD wt (Homo sapiens, UniProt P10275) | < 4.00 |
| COc1cc(/C=N/NC(=O)c2cc3c(ccc4ccccc43)o2)cc(Cl)c1OCc1ccccc1 | AR-LBD wt (Homo sapiens, UniProt P10275) | < 4.00 |
| COc1cc(Br)cc(/C=N/NC(=O)c2cc3c(ccc4ccccc43)o2)c1O | AR-LBD wt (Homo sapiens, UniProt P10275) | < 4.00 |
| O=C(N/N=C/c1ccc(O)c(Br)c1)c1cc2c(ccc3ccccc32)o1 | AR-LBD wt (Homo sapiens, UniProt P10275) | < 4.00 |
| Cc1ccccc1/C=N/NC(=O)c1cc2ccccc2cc1O | AR-LBD wt (Homo sapiens, UniProt P10275) | < 4.00 |
| COC(=O)c1ccc(O)c(/C=N/NC(=O)c2cc3ccccc3cc2O)c1 | AR-LBD wt (Homo sapiens, UniProt P10275) | 4.22 |
| O=C(C/C=N/C=N/NC(=O)c1ccccc1O)c1ccccc1O | AR-LBD wt (Homo sapiens, UniProt P10275) | < 4.00 |
| C/C(=N\NC(=O)c1cc2ccccc2cc1O)c1cc(Cl)ccc1O | AR-LBD wt (Homo sapiens, UniProt P10275) | < 4.00 |
| COc1cccc(/C=N/NC(=O)c2cc3ccccc3cc2O)c1O | AR-LBD wt (Homo sapiens, UniProt P10275) | 4.91 |
| O=C(N/N=C/c1cccc2ccccc12)c1cc2ccccc2cc1O | AR-LBD wt (Homo sapiens, UniProt P10275) | < 4.00 |
| CCOc1c(Cl)cc(/C=N/NC(=O)c2cc3c(ccc4ccccc43)o2)cc1Cl | AR-LBD wt (Homo sapiens, UniProt P10275) | < 4.00 |
| CCOc1ccc(/C=N/NC(=O)c2cc3ccccc3cc2O)cc1O | AR-LBD wt (Homo sapiens, UniProt P10275) | < 4.00 |
| CCOc1ccc(/C=N/NC(=O)c2cc3c(ccc4ccccc43)o2)cc1 | AR-LBD wt (Homo sapiens, UniProt P10275) | < 4.00 |
| O=C(O)c1ccc(O)c(/C=N/NC(=O)c2cc3ccccc3cc2O)c1 | AR-LBD wt (Homo sapiens, UniProt P10275) | 4.36 |
| Cc1cccc(/C=N/NC(=O)c2cc3ccccc3cc2O)c1O | AR-LBD wt (Homo sapiens, UniProt P10275) | 4.88 |
| C/C(=N\NC(=O)c1cc2ccccc2cc1O)c1ccc2ccccc2c1 | AR-LBD wt (Homo sapiens, UniProt P10275) | < 4.00 |
| O=C(N/N=C/c1ccccc1C(=O)O)c1cc2ccccc2cc1O | AR-LBD wt (Homo sapiens, UniProt P10275) | < 4.00 |
| Cc1ccc(O)c(/C=N/NC(=O)c2cc3ccccc3cc2O)c1 | AR-LBD wt (Homo sapiens, UniProt P10275) | < 4.00 |
| O=C(N/N=C/c1ccccc1)c1cc2ccccc2cc1O | AR-LBD wt (Homo sapiens, UniProt P10275) | < 4.00 |
| O=C(N/N=C/c1ccc(OCc2ccccc2)cc1)c1cc2c(ccc3ccccc32)o1 | AR-LBD wt (Homo sapiens, UniProt P10275) | < 4.00 |
| C/C(=N\NC(=O)c1cc2ccccc2cc1O)c1ccco1 | AR-LBD wt (Homo sapiens, UniProt P10275) | < 4.00 |
| O=C(N/N=C/c1cc(Cl)ccc1O)c1ccc2ccccc2c1 | AR-LBD wt (Homo sapiens, UniProt P10275) | < 4.00 |
| CC(C)(C)c1ccc(O)c(/C=N/NC(=O)c2cc3ccccc3cc2O)c1 | AR-LBD wt (Homo sapiens, UniProt P10275) | < 4.00 |
| O=C(N/N=C/c1cccc(Cl)c1O)c1cc2ccccc2cc1O | AR-LBD wt (Homo sapiens, UniProt P10275) | < 3.70 |
| CCOc1cc(/C=N/NC(=O)c2cc3ccccc3cc2O)ccc1O | AR-LBD wt (Homo sapiens, UniProt P10275) | < 4.00 |
| O=C(N/N=C/c1cc(I)ccc1O)c1cc2ccccc2cc1O | AR-LBD wt (Homo sapiens, UniProt P10275) | < 4.00 |
| COc1c(Cl)cc(/C=N/NC(=O)c2cc3c(ccc4ccccc43)o2)cc1Cl | AR-LBD wt (Homo sapiens, UniProt P10275) | < 4.00 |
| CCOc1cc(/C=N/NC(=O)c2cc3ccccc3o2)cc(I)c1OC | AR-LBD wt (Homo sapiens, UniProt P10275) | < 4.00 |
| COc1cc(/C=N/NC(=O)c2cc3c(ccc4ccccc43)o2)c(Br)cc1O | AR-LBD wt (Homo sapiens, UniProt P10275) | < 4.00 |
| O=C(N/N=C/c1cc(Br)ccc1O)c1cc2ccccc2cc1O | AR-LBD wt (Homo sapiens, UniProt P10275) | 4.88 |
| O=C(N/N=C/c1ccc(Cl)c([N+](=O)[O-])c1)c1cc2ccccc2cc1O | AR-LBD wt (Homo sapiens, UniProt P10275) | < 4.00 |
| COc1ccc(Br)cc1/C=N/NC(=O)c1cc2ccccc2cc1O | AR-LBD wt (Homo sapiens, UniProt P10275) | < 4.00 |
| O=C(N/N=C/c1cccc(O)c1O)c1ccccc1O | AR-LBD wt (Homo sapiens, UniProt P10275) | < 4.00 |
| O=C(N/N=C/c1cc([N+](=O)[O-])ccc1O)c1cc2ccccc2cc1O | AR-LBD wt (Homo sapiens, UniProt P10275) | 4.48 |
| COc1cc(Cl)cc(/C=N/NC(=O)c2cc3ccccc3cc2O)c1O | AR-LBD wt (Homo sapiens, UniProt P10275) | < 4.00 |
